Test system: HepG2
Experiment: cytotoxicity call (relative viability < 0.9)
Details: 10 µM
Screen size: about 39,000 compounds; about 3,300 (8.5%) were called active. The list comes from a sample in which actives are over-represented; it also holds close analogues and randomly drawn compounds.
Property measured: cytotoxicity call

// solved cases for cytotoxicity call follow
> print(dat)
                                test.smiles    result
1  COc1ccc(S(=O)(=O)N(C)C[C@@H]2OCCCC[C@@H](C)Oc3ccc(NS(=O)(=O)c4ccc(Cl)cc4)cc3C(=O)N([C@H](C)CO)C[C@H]2C)cc1    active
2              COC(=O)c1cc(=O)n2ccccc2c1C#N  inactive
3  COc1ccc(NC(=O)N(C)C[C@@H]2Oc3ccc(NC(=O)C4CC4)cc3CC(=O)N([C@@H](C)CO)C[C@H]2C)cc1  inactive
4  COc1ccc(S(=O)(=O)N(C)C[C@@H]2OCCCC[C@@H](C)Oc3ccc(NS(=O)(=O)c4ccc(Cl)cc4)cc3C(=O)N([C@@H](C)CO)C[C@@H]2C)cc1  inactive
5  COc1ccc(S(=O)(=O)Nc2ccc3c(c2)C(=O)N([C@H](C)CO)C[C@H](C)[C@@H](CN(C)S(=O)(=O)c2ccc(Cl)cc2)OCCCC[C@@H](C)O3)cc1    active
6  COCCCNC(=O)[C@@]1(Sc2ccc(C)cc2)CC(=O)N(Cc2cc(C(F)(F)F)cc(C(F)(F)F)c2)[C@@H]1c1ccc(CO)cc1I  inactive

### Prompt Respond only with cytotoxicity call recorded for `COc1ccc(S(=O)(=O)Nc2ccc3c(c2)C(=O)N([C@H](C)CO)C[C@@H](C)[C@H](CN(C)S(=O)(=O)c2ccc(Cl)cc2)OCCCC[C@H](C)O3)cc1`
### Response inactive

* * *

Test system: HepG2
Assay: cytotoxicity call (relative viability < 0.9)
Details: 10 µM
About 3,300 (8.5%) of roughly 39,000 compounds were called active. This is one part of a sample in which actives are shown more often than they occur.
Mark one answer only. Choices: active, inactive

### Prompt Test call, this molecule: `C[C@H]1CN([C@@H](C)CO)C(=O)Cc2cc(NS(=O)(=O)c3cccs3)ccc2O[C@H]1CN(C)Cc1ccc(-c2ccccc2)cc1`
### Response inactive

### Prompt Test call, this molecule: `C[C@H](CO)N1C[C@H](C)[C@@H](CN(C)C(=O)Nc2ccc3c(c2)OCO3)OCCCC[C@H](C)Oc2ccc(NC(=O)Nc3cccc4ccccc34)cc2C1=O`
### Response inactive

### Prompt Test call, this molecule: `CN(C)C(=O)CN1CCC2(CC1)CN(CCn1cccn1)C(=O)CO2`
### Response inactive

### Prompt Test call, this molecule: `O[C@@H](Cc1ccccc1)[C@@H](/C=C/C1CC1)N(CC#Cc1ccccc1)Cc1ccccc1Br`
### Response inactive

### Prompt Test call, this molecule: `COc1ccc(S(=O)(=O)Nc2ccc3c(c2)C(=O)N([C@H](C)CO)C[C@H](C)[C@H](CN(C)Cc2ccc(Cl)c(Cl)c2)OCCCC[C@H](C)O3)cc1`
### Response inactive

### Prompt Test call, this molecule: `COc1ccc(S(=O)(=O)Nc2ccc3c(c2)C(=O)N([C@H](C)CO)C[C@@H](C)[C@H](CN(C)Cc2ccc(Cl)c(Cl)c2)OCCCC[C@@H](C)O3)cc1`
### Response active

### Prompt Test call, this molecule: `C/C=C/c1ccc2c(c1)O[C@H](CN(C)S(=O)(=O)c1ccccc1OC)[C@H](C)CN([C@H](C)CO)S2(=O)=O`
### Response inactive
